target.system: GSK3b (GST-full length GSK3b) (Homo sapiens, UniProt P49841)
Construct: GST-full length GSK3b: [SignalChem G08-9G]; purchased SignalChem G08-9G
Sequence (P49841 whole entry): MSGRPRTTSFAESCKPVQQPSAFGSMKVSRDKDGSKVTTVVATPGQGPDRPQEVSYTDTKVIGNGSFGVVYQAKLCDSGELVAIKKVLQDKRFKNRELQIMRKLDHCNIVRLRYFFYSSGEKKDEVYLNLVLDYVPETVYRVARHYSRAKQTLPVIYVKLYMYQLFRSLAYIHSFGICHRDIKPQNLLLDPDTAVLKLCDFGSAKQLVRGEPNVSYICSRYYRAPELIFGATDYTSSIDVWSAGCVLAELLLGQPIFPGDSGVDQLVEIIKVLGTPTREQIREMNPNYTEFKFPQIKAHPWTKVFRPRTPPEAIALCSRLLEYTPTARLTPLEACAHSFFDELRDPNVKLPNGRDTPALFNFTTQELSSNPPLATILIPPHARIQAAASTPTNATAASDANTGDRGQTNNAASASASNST
protocol: GSK3b TR-FRET kinase inhibition assay
Type: biochemical
measurement.conditions: 1 mM ATP; Table 3; read-out: GSK3b TR-FRET 1 mM ATP Average IC50

compound	target.system	IC50
CC1(C)CC(=O)C2=C(C1)Nc1ncc(F)cc1C2(C)c1cccc(S(C)(=O)=O)c1 (single isomer, unassigned) [Compound 139A]	GSK3b (GST-full length GSK3b) (Homo sapiens, UniProt P49841)	≤ 100 nM
CC1(C)CC(=O)C2=C(C1)Nc1ncc(C(F)(F)F)cc1C2(C)c1ccccc1 (single isomer, unassigned) [Compound 128B]	GSK3b (GST-full length GSK3b) (Homo sapiens, UniProt P49841)	1000 to 5000 nM
CC(C)c1ccnc2c1C(C)(c1ccccc1)C1=C(CC(C)(C)CC1=O)N2 (single isomer, unassigned) [Compound 120A]	GSK3b (GST-full length GSK3b) (Homo sapiens, UniProt P49841)	100 to 1000 nM
CC1(C)CC(=O)C2=C(C1)Nc1ncc(C3CC3)cc1C2(C)c1ccccc1 (single isomer, unassigned) [Compound 117A]	GSK3b (GST-full length GSK3b) (Homo sapiens, UniProt P49841)	1000 to 5000 nM
CC(C)(C)Cc1ccnc2c1C(C)(c1ccccc1)C1=C(CC(C)(C)CC1=O)N2 (single isomer, unassigned) [Compound 130B]	GSK3b (GST-full length GSK3b) (Homo sapiens, UniProt P49841)	5000 to 20000 nM
CC1(C)CC(=O)C2=C(C1)Nc1ncc(F)c(C(F)(F)F)c1C2(C)c1cccc(S(C)(=O)=O)c1 (single isomer, unassigned) [Compound 166A]	GSK3b (GST-full length GSK3b) (Homo sapiens, UniProt P49841)	100 to 1000 nM
CC(C)(C)Cn1nccc1-c1cccc(C2(C)C3=C(CC(C)(C)CC3=O)Nc3ncc(F)cc32)c1 (single isomer, unassigned) [Compound 160A]	GSK3b (GST-full length GSK3b) (Homo sapiens, UniProt P49841)	100 to 1000 nM
CC1(C)CC(=O)C2=C(C1)Nc1ncc(Br)c(F)c1C2(C)c1ccccc1 (single isomer, unassigned) [Compound 140A]	GSK3b (GST-full length GSK3b) (Homo sapiens, UniProt P49841)	100 to 1000 nM
CC1(C)CC(=O)C2=C(C1)Nc1ncc(C(F)(F)F)c(F)c1C2(C)c1ccccc1 (single isomer, unassigned) [Compound 136A]	GSK3b (GST-full length GSK3b) (Homo sapiens, UniProt P49841)	5000 to 20000 nM
CC1(C)CC(=O)C2=C(C1)Nc1ncccc1C2(C)c1cccc(-c2ccncc2OCC(F)F)c1 (single isomer, unassigned) [Compound 162A]	GSK3b (GST-full length GSK3b) (Homo sapiens, UniProt P49841)	1000 to 5000 nM
COc1cncc(F)c1-c1cccc(C2(C)C3=C(CC(C)(C)CC3=O)Nc3ncc(C4CC4)cc32)c1 (single isomer, unassigned) [Compound 167A]	GSK3b (GST-full length GSK3b) (Homo sapiens, UniProt P49841)	100 to 1000 nM
CCC1(c2ccccc2)C2=C(CC3(CCC3)CC2=O)Nc2ncccc21 (single isomer, unassigned) [Compound 110A]	GSK3b (GST-full length GSK3b) (Homo sapiens, UniProt P49841)	5000 to 20000 nM
CC1(C)CC(=O)C2=C(C1)Nc1ncc(C#N)cc1C2(C)c1ccccc1 (single isomer, unassigned) [Compound 109A]	GSK3b (GST-full length GSK3b) (Homo sapiens, UniProt P49841)	1000 to 5000 nM
